Taken from patent US20110189183A1.

Biological target: Candida albicans (Cat. No. 10231, ATCC) whole cells (Candida albicans)
Test: colorimetric ELISA on C. albicans cells, [50% Max]
parameter measured: EC50 (nM)
Only the number, expressed in nM, is required.

Guide cases for EC50, answers given:
2G12 IgG (wildtype, made in house) (antibody, V domains shown) VH: EVQLVESGGGLVKAGGSLILSCGVSNFRISAHTMNWVRRVPGGGLEWVASISTSSTYRDYADAVKGRFTVSRDDLEDFVYLQMHKMRVEDTAIYYCARKGSDRLSDNDPFDAWGPGTVVTVSP VL: DVVMTQSPSTLSASVGDTITITCRASQSIETWLAWYQQKPGKAPKLLIYKASTLKTGVPSRFSGSGSGTEFTLTISGLQFDDFATYHCQHYAGYSATFGQGTRVEIKR; 9.7
2G12 Polymun (Cat. No. AB002, Polymun Scientific) (antibody, V domains shown) VH: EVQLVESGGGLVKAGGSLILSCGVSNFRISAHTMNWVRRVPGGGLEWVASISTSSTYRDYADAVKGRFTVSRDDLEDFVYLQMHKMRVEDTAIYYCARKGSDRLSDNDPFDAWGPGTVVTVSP VL: DVVMTQSPSTLSASVGDTITITCRASQSIETWLAWYQQKPGKAPKLLIYKASTLKTGVPSRFSGSGSGTEFTLTISGLQFDDFATYHCQHYAGYSATFGQGTRVEIKR; 76.3
1F8 IgG (antibody, V domains shown) VH: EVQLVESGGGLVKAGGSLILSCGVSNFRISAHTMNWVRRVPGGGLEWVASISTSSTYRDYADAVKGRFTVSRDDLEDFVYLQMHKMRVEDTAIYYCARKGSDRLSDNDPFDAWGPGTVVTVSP VL: GVVMTQSPSTLSASVGDTITITCRASQSIETWLAWYQQKPGKAPKLLIYKASTLKTGVPSRFSGSGSGTEFTLTISGLQFDDFATYHCQHYLPFNATFGQGTRVEIKR; 0.9

Query: Consider the binder shown here: 1H12 IgG (antibody, V domains shown) VH: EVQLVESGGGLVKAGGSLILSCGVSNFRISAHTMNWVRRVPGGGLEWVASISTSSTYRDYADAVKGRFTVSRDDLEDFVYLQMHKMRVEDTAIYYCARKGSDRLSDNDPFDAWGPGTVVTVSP VL: GVVMTQSPSTLSASVGDTITITCRASQSIETWLAWYQQKPGKAPKLLIYKASTLKTGVPSRFSGSGSGTEFTLTISGLQFDDFATYHCQHYMPYRASFGQGTRVEIKR What is its recorded EC50?
Reply: 0.4
